Where a name gives a salt, the structure may show the parent alone.
I'd appreciate it if you could supply Ki values for the items below.
Give the quantity in nM, number only.

Exercise: Report value only: Ki, δ1 (Cavia porcellus), O=C(O)C[C@H](NC(=O)c1cccc2c3c([nH]c12)[C@@H]1Oc2c(O)ccc4c2[C@@]12CCN(CC1CC1)[C@H](C4)[C@]2(O)C3)C(=O)O [Compound 3, hydrochloride]
Key: 0.14

Exercise: Report value only: Ki, δ1 (Cavia porcellus), N=C(N)NCCC[C@H](NC(=O)c1cccc2c3c([nH]c12)[C@@H]1Oc2c(O)ccc4c2[C@@]12CCN(CC1CC1)[C@H](C4)[C@]2(O)C3)C(=O)O [Compound 5, hydrochloride]
Key: 0.16

Exercise: Report value only: Ki, δ1 (Cavia porcellus), NCCCC[C@H](NC(=O)c1cccc2c3c([nH]c12)[C@@H]1Oc2c(O)ccc4c2[C@@]12CCN(CC1CC1)[C@H](C4)[C@]2(O)C3)C(=O)O [Compound 6, hydrochloride]
Key: 0.3

Exercise: Report value only: Ki, δ1 (Cavia porcellus), NCCC[C@H](NC(=O)c1cccc2c3c([nH]c12)[C@@H]1Oc2c(O)ccc4c2[C@@]12CCN(CC1CC1)[C@H](C4)[C@]2(O)C3)C(=O)O [Compound 4, hydrochloride]
Key: 0.18

Exercise: Report value only: Ki, δ1 (Cavia porcellus), O=C(O)c1cccc2c3c([nH]c12)[C@@H]1Oc2c(O)ccc4c2[C@@]12CCN(CC1CC1)[C@H](C4)[C@]2(O)C3 [Compound 7, hydrochloride]
Key: 0.013

* * *

# tgt: δ opioid receptors (Mus musculus)
# assay: Antagonism of DADLE (δ) in electrically stimulated mouse vas deferens (MVD) preparation
# applied.conditions: MVD DADLE IC50 ratio / GPI morphine IC50 ratio
Where a name gives a salt, the structure may show the parent alone.
I'd appreciate it if you could supply IC50 Selectivity Ratio δ/μ values for the items below.
A bare number is all that is needed in reply.

Exercise: Respond only with IC50 Selectivity Ratio δ/μ recorded for NCCCC[C@H](NC(=O)c1cccc2c3c([nH]c12)[C@@H]1Oc2c(O)ccc4c2[C@@]12CCN(CC1CC1)[C@H](C4)[C@]2(O)C3)C(=O)O [Compound 6, hydrochloride]
Key: 20

Exercise: Respond only with IC50 Selectivity Ratio δ/μ recorded for O=C(O)CNC(=O)c1cccc2c3c([nH]c12)[C@@H]1Oc2c(O)ccc4c2[C@@]12CCN(CC1CC1)[C@H](C4)[C@]2(O)C3 [Compound 2, hydrochloride]
Key: 21

Exercise: Respond only with IC50 Selectivity Ratio δ/μ recorded for NCCC[C@H](NC(=O)c1cccc2c3c([nH]c12)[C@@H]1Oc2c(O)ccc4c2[C@@]12CCN(CC1CC1)[C@H](C4)[C@]2(O)C3)C(=O)O [Compound 4, hydrochloride]
Key: 20

Exercise: Respond only with IC50 Selectivity Ratio δ/μ recorded for O=C(O)C[C@H](NC(=O)c1cccc2c3c([nH]c12)[C@@H]1Oc2c(O)ccc4c2[C@@]12CCN(CC1CC1)[C@H](C4)[C@]2(O)C3)C(=O)O [Compound 3, hydrochloride]
Key: 67

Exercise: Respond only with IC50 Selectivity Ratio δ/μ recorded for N=C(N)NCCC[C@H](NC(=O)c1cccc2c3c([nH]c12)[C@@H]1Oc2c(O)ccc4c2[C@@]12CCN(CC1CC1)[C@H](C4)[C@]2(O)C3)C(=O)O [Compound 5, hydrochloride]
Key: 24

* * *

The compounds below have reported Ki for κ (Cavia porcellus, UniProt P41144).
Structures can show the parent of a compound that is named as a salt.
Give the quantity in nM, number only.

Exercise: Respond only with Ki recorded for O=C(O)CNC(=O)c1cccc2c3c([nH]c12)[C@@H]1Oc2c(O)ccc4c2[C@@]12CCN(CC1CC1)[C@H](C4)[C@]2(O)C3 [Compound 2, hydrochloride]
Key: 162

Exercise: Respond only with Ki recorded for O=C(O)c1cccc2c3c([nH]c12)[C@@H]1Oc2c(O)ccc4c2[C@@]12CCN(CC1CC1)[C@H](C4)[C@]2(O)C3 [Compound 7, hydrochloride]
Key: 42

* * *

# System: δ1
# assay: biochemical
# Type: binding, guinea pig
# applied.conditions: Ki κ / Ki δ1
Counter-ions that a name gives are not always drawn.
property.measured: Ki Selectivity Ratio κ/δ1
A bare number is all that is needed in reply.

Exercise: Respond only with Ki Selectivity Ratio κ/δ1 recorded for N=C(N)NCCC[C@H](NC(=O)c1cccc2c3c([nH]c12)[C@@H]1Oc2c(O)ccc4c2[C@@]12CCN(CC1CC1)[C@H](C4)[C@]2(O)C3)C(=O)O [Compound 5, hydrochloride]
Key: 1181

Exercise: Respond only with Ki Selectivity Ratio κ/δ1 recorded for O=C(O)C[C@H](NC(=O)c1cccc2c3c([nH]c12)[C@@H]1Oc2c(O)ccc4c2[C@@]12CCN(CC1CC1)[C@H](C4)[C@]2(O)C3)C(=O)O [Compound 3, hydrochloride]
Key: 6246

Exercise: Respond only with Ki Selectivity Ratio κ/δ1 recorded for NCCC[C@H](NC(=O)c1cccc2c3c([nH]c12)[C@@H]1Oc2c(O)ccc4c2[C@@]12CCN(CC1CC1)[C@H](C4)[C@]2(O)C3)C(=O)O [Compound 4, hydrochloride]
Key: 320

Exercise: Respond only with Ki Selectivity Ratio κ/δ1 recorded for O=C(O)c1cccc2c3c([nH]c12)[C@@H]1Oc2c(O)ccc4c2[C@@]12CCN(CC1CC1)[C@H](C4)[C@]2(O)C3 [Compound 7, hydrochloride]
Key: 3246

Exercise: Respond only with Ki Selectivity Ratio κ/δ1 recorded for NCCCC[C@H](NC(=O)c1cccc2c3c([nH]c12)[C@@H]1Oc2c(O)ccc4c2[C@@]12CCN(CC1CC1)[C@H](C4)[C@]2(O)C3)C(=O)O [Compound 6, hydrochloride]
Key: 134

* * *

# Tested on: δ1
# assay: biochemical
# Type: binding, guinea pig
# applied.conditions: Ki μ / Ki δ1
# Description: The opioid receptor affinities of the target compounds were determined on guinea pig membranes employing a modification of the method of Werling et al., J. Pharmacol. Exp. Ther., 233, 722 (1986).
Where a name gives a salt, the structure may show the parent alone.
Under this convention, Condition met denotes Ki Selectivity Ratio μ/δ1 strictly below 2000 and Condition not met denotes Ki Selectivity Ratio μ/δ1 at or above 2000.

Exercise: Is Ki Selectivity Ratio μ/δ1 of NCCC[C@H](NC(=O)c1cccc2c3c([nH]c12)[C@@H]1Oc2c(O)ccc4c2[C@@]12CCN(CC1CC1)[C@H](C4)[C@]2(O)C3)C(=O)O [Compound 4, hydrochloride] strictly below 2000?
Key: Condition met

Exercise: Is Ki Selectivity Ratio μ/δ1 of O=C(O)c1cccc2c3c([nH]c12)[C@@H]1Oc2c(O)ccc4c2[C@@]12CCN(CC1CC1)[C@H](C4)[C@]2(O)C3 [Compound 7, hydrochloride] strictly below 2000?
Key: Condition met

Exercise: Is Ki Selectivity Ratio μ/δ1 of O=C(O)C[C@H](NC(=O)c1cccc2c3c([nH]c12)[C@@H]1Oc2c(O)ccc4c2[C@@]12CCN(CC1CC1)[C@H](C4)[C@]2(O)C3)C(=O)O [Compound 3, hydrochloride] strictly below 2000?
Key: Condition not met

Exercise: Is Ki Selectivity Ratio μ/δ1 of N=C(N)NCCC[C@H](NC(=O)c1cccc2c3c([nH]c12)[C@@H]1Oc2c(O)ccc4c2[C@@]12CCN(CC1CC1)[C@H](C4)[C@]2(O)C3)C(=O)O [Compound 5, hydrochloride] strictly below 2000?
Key: Condition not met

Exercise: Is Ki Selectivity Ratio μ/δ1 of NCCCC[C@H](NC(=O)c1cccc2c3c([nH]c12)[C@@H]1Oc2c(O)ccc4c2[C@@]12CCN(CC1CC1)[C@H](C4)[C@]2(O)C3)C(=O)O [Compound 6, hydrochloride] strictly below 2000?
Key: Condition met

* * *

I'd appreciate it if you could supply IC50 ratio EK (κ) values for the items below.
# tgt: κ opioid receptor (Cavia porcellus, UniProt P41144)
# applied.conditions: GPI, ethylketazocine, antagonist 100 nM
Structures can show the parent of a compound that is named as a salt.
A bare number is all that is needed in reply.

Exercise: Respond only with IC50 ratio EK (κ) recorded for O=C(O)C[C@H](NC(=O)c1cccc2c3c([nH]c12)[C@@H]1Oc2c(O)ccc4c2[C@@]12CCN(CC1CC1)[C@H](C4)[C@]2(O)C3)C(=O)O [Compound 3, hydrochloride]
Key: 2.1

Exercise: Respond only with IC50 ratio EK (κ) recorded for N=C(N)NCCC[C@H](NC(=O)c1cccc2c3c([nH]c12)[C@@H]1Oc2c(O)ccc4c2[C@@]12CCN(CC1CC1)[C@H](C4)[C@]2(O)C3)C(=O)O [Compound 5, hydrochloride]
Key: 1.2

Exercise: Respond only with IC50 ratio EK (κ) recorded for NCCCC[C@H](NC(=O)c1cccc2c3c([nH]c12)[C@@H]1Oc2c(O)ccc4c2[C@@]12CCN(CC1CC1)[C@H](C4)[C@]2(O)C3)C(=O)O [Compound 6, hydrochloride]
Key: 1.1

Exercise: Respond only with IC50 ratio EK (κ) recorded for O=C(O)CNC(=O)c1cccc2c3c([nH]c12)[C@@H]1Oc2c(O)ccc4c2[C@@]12CCN(CC1CC1)[C@H](C4)[C@]2(O)C3 [Compound 2, hydrochloride]
Key: 1.1

Exercise: Respond only with IC50 ratio EK (κ) recorded for NCCC[C@H](NC(=O)c1cccc2c3c([nH]c12)[C@@H]1Oc2c(O)ccc4c2[C@@]12CCN(CC1CC1)[C@H](C4)[C@]2(O)C3)C(=O)O [Compound 4, hydrochloride]
Key: 0.9

Exercise: Respond only with IC50 ratio EK (κ) recorded for O=C(O)c1cccc2c3c([nH]c12)[C@@H]1Oc2c(O)ccc4c2[C@@]12CCN(CC1CC1)[C@H](C4)[C@]2(O)C3 [Compound 7, hydrochloride]
Key: 1.0

Recorded values, source patent US5578725A.
